Literature-derived IC50 for Wee1-like protein kinase (Homo sapiens) follows.
Output spec: scalar in nM, unitless text.

// below: answered compounds
INSERT INTO results (compound, measured_attribute, reading) VALUES
  ('Cn1c(=O)c(-c2c(Cl)cccc2Cl)cc2cnc(Nc3ccccc3)nc21', 'IC50', 2600),
  ('CC(C)N1Cc2ccc(Nc3ncc4c(=O)n5n(c4n3)-c3ccc4c(n3)N(CCC/C=C\C5)C(=O)CO4)cc2C2(CC2)C1', 'IC50', 10.2),
  ('O=C1NC(=O)c2c1c(-c1ccccc1)cc1c2c2cc(O)ccc2n1CCCNc1ccccc1', 'IC50', 93),
  ('Cn1c(=O)c(-c2c(Cl)cc(N)cc2Cl)cc2cnc(Nc3ccccc3)nc21', 'IC50', 3700);

Given the entry `NC(=O)CCn1c2ccc(O)cc2c2c3c(c(-c4ccccc4)cc21)C(=O)NC3=O` , what IC50 was observed with Wee1-like protein kinase (Homo sapiens)? 21

Now consider `COc1ccc2cc(-c3n[nH]c4cccnc34)[nH]c2c1` . 5720

What about `CNCCCn1c2ccc(O)cc2c2c3c(c(-c4ccccc4)cc21)C(=O)NC3=O` ? 280

For `O=C1NC(=O)c2c1c(-c1ccccc1Cl)cc1c2c2cc(O)ccc2n1CCN1CCOCC1` then? 64

Quick one: `Cn1c2cc(S(=O)(=O)CCCN3CCCC3)c(O)cc2c2c3c(c(-c4ccccc4Cl)cc21)C(=O)NC3=O` 160

Try Cn1c2cc([S+]([O-])CCCN3CCCC3)c(O)cc2c2c3c(c(-c4ccccc4Cl)cc21)C(=O)NC3=O (stereo not drawn) next. 33

Next compound: `COc1cc(OC)c(C)c(-c2cc3cnc(Nc4ccccc4)nc3n(C)c2=O)c1C` 33000

Queued: `CC(C)(O)c1cccc(-n2cc(F)c3cnc(Nc4ccc(N5C[C@@H]6C[C@H]5CN6)cc4)nc32)n1` 24

// query: `CN1CCN(CCCn2c3ccc(O)cc3c3c4c(c(-c5ccccc5)cc32)C(=O)NC4=O)CC1` 300
